Measured yeast fitness, listed per entry for reference.
B1: tRNA (parent)
chain: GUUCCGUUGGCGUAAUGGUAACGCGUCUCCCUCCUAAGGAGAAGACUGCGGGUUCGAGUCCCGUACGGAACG

Variants of: B1
test name: yeast fitness relative to wild type (ratio to wild type); higher = fitter; tRNA-Arg(CCU), competitive growth, 37 C, YPD
Variants at the floor of the assay were thinned out.
Just the number.

Below: 5 variants and their reported yeast fitness.
variant description | reported property | reported
U19G G48C | yeast fitness | 0.948
G12C C49U G52C A57C A65C | yeast fitness | 0.53
C46G G48C | yeast fitness | 1.02
C11U C24G C27G A65U | yeast fitness | 0.576
U2G A43U | yeast fitness | 0.996

Now turn to the next variant.
Q) What does the record list as yeast fitness for A15U C31G G50C G58C ?
A) 0.588
